Entries annotated with measured EC50 (pM), A431 lysis with PBMC
- measurement_target: NKp30 on human NK cells (human) (UniProt O14931)
- Sequence (O14931 19-201): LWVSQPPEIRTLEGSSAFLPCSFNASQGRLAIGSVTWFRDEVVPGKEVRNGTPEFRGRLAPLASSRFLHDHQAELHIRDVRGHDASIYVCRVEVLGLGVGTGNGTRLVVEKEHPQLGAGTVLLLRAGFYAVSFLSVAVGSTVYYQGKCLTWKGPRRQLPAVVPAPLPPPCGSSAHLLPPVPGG
- measurement_protocol: cell-based or functional assay
Please reply with the bare figure in pM and do not write the unit itself.

Answered examples (10):
ΔB7-H6_S3#21-SEED-PGLALA (bispecific antibody, part only; not given: SEED Fc chains and hu225 Fab, part only) chain, part: DLKVEMMAGGTQITPLNDNVTIFCNIFYSQPLNITLMGITWFWKSLTFDKEVKVFEFWGDHQEAFRPGAIVSPWRLKSGDASLRLPGIQLEEAGEYRCEVVVTPYKAQGTVQLEVVASPAS | 36.1
ΔB7-H6_S3#28-SEED-PGLALA (bispecific antibody, part only; not given: SEED Fc chains and hu225 EGFR Fab, part only) chain, part: DLKVEMMAGGTQITPLNDNVTIFCNIFYSQPLNITHMGITWFWKSLTFDKEVKVFEFWGDHQEAFRPGAIVSPWRLKSGDASLRLPGIQLEEAGEYRCEVVVTPLKAQGTVQLEVVASPAS | 114
ΔB7-H6_S3#12-SEED-PGLALA (bispecific antibody, part only; not given: SEED Fc chains and hu225 Fab, part only) chain, part: DLKVEMMAGGTQITPLNDNVTIFCNIFYSQPLNITEMGITWFWKSLTFDKEVKVFEFFGDHQEAFRPGAIVSPWRLKSGDASLRLPGIQLEEAGEYRCEVVVTPYKAQGTVQLEVVASPAS | 165
ΔB7-H6_S3#27-SEED-PGLALA (bispecific antibody, part only; not given: SEED Fc chains and hu225 EGFR Fab, part only) chain, part: DLKVEMMAGGTQITPLNDNVTIFCNIFYSQPLNITTMGITWFWKSLTFDKEVKVFEFWGDHQEAFRPGAIVSPWRLKSGDASLRLPGIQLEEAGEYRCEVIVTPYKAQGTVQLEVVASPAS | 19.2
ΔB7-H6_S3#10-SEED-PGLALA (bispecific antibody, part only; not given: SEED Fc chains and hu225 Fab, part only) chain, part: DLKVEMMAGGTQITPLNDNVTIFCNIFYSQPLNITSMGITWFWKSLTFDKEVKVFEFYGDHQEAFRPGAIVSPWRLKSGDASLRLPGIQLEEAGEYRCEVFVTPYKAQGTVQLEVVASPAS | 85
ΔB7-H6_S3#25-SEED-PGLALA (bispecific antibody, part only; not given: SEED Fc chains and hu225 Fab, part only) chain, part: DLKVEMMAGGTQITPLNDNVTIFCNIFYSQPLNITWMGITWFWKSLTFDKEVKVFEFYGDHQEAFRPGAIVSPWRLKSGDASLRLPGIQLEEAGEYRCEVVVTPYKAQGTVQLEVVASPAS | 9.9
ΔB7-H6_S2#1-SEED-PGLALA (bispecific antibody, part only; not given: SEED Fc chains and hu225 EGFR Fab, part only) chain, part: DLKVEMMAGGTQITPLNDNVTIFCNIFYSQPLNITSMGITWFWKSLTFDKEVKVFEFYGDHQEAFRPGAIVSPWRLKSGDASLRLPGIQLEEAGEYRCEVVVTPYKAQGTVQLEVVASPAS | 140
ΔB7-H6_S3#9-SEED-PGLALA (bispecific antibody, part only; not given: SEED Fc chains and hu225 EGFR Fab, part only) chain, part: DLKVEMMAGGTQITPLNDNVTIFCNIFYSQPLNITHMGITWFWKSLTFDKEVKVFEFFGDHQEAFRPGAIVSPWRLKSGDASLRLPGIQLEEAGEYRCEVVVTPYKAQGTVQLEVVASPAS | 64
ΔB7-H6_S3#29-SEED-PGLALA (bispecific antibody, part only; not given: SEED Fc chains and hu225 EGFR Fab, part only) chain, part: DLKVEMMAGGTQITPLNDNVTIFCNIFYSQPLNITVMGITWFWKSLTFDKEVKVFEFWGDHQEAFRPGAIVSPWRLKSGDASLRLPGIQLEEAGEYRCEVIVTPYKAQGTVQLEVVASPAS | 7.6
ΔB7-H6_S3#3-SEED-PGLALA (bispecific antibody, part only; not given: SEED Fc chains and hu225 Fab, part only) chain, part: DLKVEMMAGGTQITPLNDNVTIFCNIFYSQPLNITHMGITWFWKSLTFDKEVKVFEFFGDHQEAFRPGAIVSPWRLKSGDASLRLPGIQLEEAGEYRCEVFVTPYKAQGTVQLEVVASPAS | 110

Name the reported EC50 (pM), A431 lysis with PBMC value associated with the binder ΔB7-H6_S3#5-SEED-PGLALA (bispecific antibody, part only; not given: SEED Fc chains and hu225 Fab, part only) chain, part: DLKVEMMAGGTQITPLNDNVTIFCNIFYSQPLNITVMGITWFWKSLTFDKEVKVFEFWGDHQEAFRPGAIVSPWRLKSGDASLRLPGIQLEEAGEYRCEVVVTPYKAQGTVQLEVVASPAS
54.7
